I'd appreciate it if you could supply inhibition at 10 µM values for the items below.
Target: IKK-β (Homo sapiens, UniProt O14920)
Construct: purchased Promega
Sequence (O14920 1-756): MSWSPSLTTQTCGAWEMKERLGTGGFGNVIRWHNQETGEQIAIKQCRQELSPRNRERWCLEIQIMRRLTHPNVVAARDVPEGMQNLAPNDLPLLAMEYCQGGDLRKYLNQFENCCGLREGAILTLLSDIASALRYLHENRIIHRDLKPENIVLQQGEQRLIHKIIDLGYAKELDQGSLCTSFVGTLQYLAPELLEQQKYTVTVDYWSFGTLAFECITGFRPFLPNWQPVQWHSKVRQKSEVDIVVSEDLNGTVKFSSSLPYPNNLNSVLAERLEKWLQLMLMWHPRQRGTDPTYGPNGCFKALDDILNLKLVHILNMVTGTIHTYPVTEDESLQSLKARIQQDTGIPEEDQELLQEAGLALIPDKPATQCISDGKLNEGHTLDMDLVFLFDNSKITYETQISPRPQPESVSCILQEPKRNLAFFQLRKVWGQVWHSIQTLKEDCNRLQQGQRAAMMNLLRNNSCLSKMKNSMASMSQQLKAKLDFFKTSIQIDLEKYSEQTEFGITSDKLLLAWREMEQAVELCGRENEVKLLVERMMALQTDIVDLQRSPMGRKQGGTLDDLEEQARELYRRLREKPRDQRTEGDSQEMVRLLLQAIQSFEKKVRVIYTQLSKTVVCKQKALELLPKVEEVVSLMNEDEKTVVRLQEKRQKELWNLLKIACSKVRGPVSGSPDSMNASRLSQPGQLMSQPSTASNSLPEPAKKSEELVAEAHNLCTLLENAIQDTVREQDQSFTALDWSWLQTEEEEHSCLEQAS
Experiment: ADP-Glo kinase assay, IKK-β inhibition
Assay type: biochemical
Settings: 10 µM; mean ± SD; read-out: % inh. at 10 µM IKK-β
Write down the numeric answer in % and omit the unit.

Suppose we examine the molecule CC1(C)NC(=O)c2sc(-c3ccc(F)c(NC(=O)C4CC4)c3)cc2N1 ; what inhibition at 10 µM value has been reported? 10

Suppose we examine the molecule CCS(=O)(=O)Nc1cccc(-c2cc3c(s2)C(=O)NC(C)(C)N3)c1 ; what inhibition at 10 µM value has been reported? 16

Suppose we examine the molecule CC1(C)NC(=O)c2sc(-c3ccnc(NC(=O)c4ccccc4)c3)cc2N1 ; what inhibition at 10 µM value has been reported? 38

Suppose we examine the molecule COc1nc(-c2ccnc(NC(=O)C3CC3)c2)sc1C(N)=O [II, reference compound] ; what inhibition at 10 µM value has been reported? 22

Suppose we examine the molecule NC(=O)Nc1cc(-c2ccnc(NC(=O)C3CC3)c2)sc1C(N)=O ; what inhibition at 10 µM value has been reported? 16

Suppose we examine the molecule CC1(C)NC(=O)c2sc(-c3ccnc(NCC4CC4)c3)cc2N1 ; what inhibition at 10 µM value has been reported? 41

Suppose we examine the molecule CC(=O)Nc1cc(-c2cc(NC(N)=O)c(C(N)=O)s2)ccn1 ; what inhibition at 10 µM value has been reported? 17
